experiment: chemical genetic growth profiling, strain panel (AID 1159580);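 note: tested at 20 µM; growth read once vehicle control cultures reached saturation at 30 °C; 1 = growth at the plate median or of vehicle wells; lower values mean less growth of the strain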; settings: S. cerevisiae deletion strains, growth OD, locus YLL041C, strain sdh2
In all, about 5,500 compounds went through this assay and about 2,000 (36%) were called active. About 18% were inconclusive and are not listed. Cut-off read from the data, not from the text of the source: active = normalized growth mostly below about 0.91 (no sharp cut-off); inconclusive = no clear call, values can overlap the other calls; inactive = mostly above about 0.92. Some of the results follow.
The categories you may choose from are YES = active, NO = inactive

Observe how each entry below is paired with its result.
molecule	assigned class
CC1(C)C(O)CC(=O)C2(C)C1CC(O)C1(C)C2CCC2(C)C(c3ccoc3)OC(=O)C3OC321 (configuration not stated)	NO
C[C@@H]1CCC2[C@](C)(CO)[C@@H](O)CC[C@]2(C)[C@@]12CC[C@@](CO)(CCO)O2 (some centres not stated)	NO
CC(=O)OC1CC[C@@]2(C)C(CCC3C2CC[C@]2(C)C(C4=CC(=O)OC4)C(OC(C)=O)CC32O)C1 (some centres not stated)	NO

Just curious, what result did COc1ccc(-c2cc(=O)c3c(O)c(OC)c(O[C@H]4O[C@H](CO[C@@H]5O[C@@H](C)[C@H](O)[C@@H](O)[C@H]5O)[C@@H](O)[C@H](O)[C@H]4O)cc3o2)cc1 get here?
NO

Just curious, what result did CC[C@@]1(O)C(=O)OCc2c1cc1n(c2=O)Cc2cc3ccccc3nc2-1 get here?
YES

Just curious, what result did COc1ccc(-c2cc(=O)c3c(OC)c(OC)c(OC)c(OC)c3o2)cc1OC get here?
NO

Just curious, what result did C[C@H]1O[C@@H](O[C@H]2[C@@H](O)C[C@H](O[C@H]3[C@@H](O)C[C@H](O[C@H]4CC[C@]5(C)C6CC[C@]7(C)[C@@H](C8=CC(=O)OC8)CC[C@]7(O)C6CC[C@@H]5C4)O[C@@H]3C)O[C@@H]2C)C[C@H](O)[C@@H]1O (some centres not stated) get here?
NO

Just curious, what result did C[C@]12CCC3C(CC[C@]4(O)C[C@@H](O)CC[C@]34C=O)[C@@]1(O)CCC2C1=CC(=O)OC1 (some centres not stated) get here?
NO

Just curious, what result did COc1cccc2c1CCC1=CC(=O)CC[C@@]12C get here?
NO

Just curious, what result did CN(C)C(=O)C(CCN1CCC(O)(c2ccc(Cl)cc2)CC1)(c1ccccc1)c1ccccc1 get here?
NO

---

experiment: chemical genetic growth profiling, strain panel (AID 1159580); settings: S. cerevisiae deletion strains, growth OD, locus YMR058W, strain fet3, active compounds read low
The campaign covered roughly 5,500 compounds. About 2,000 (36%) were called active. Not shown: some 18% with an inconclusive outcome. This is one part of the list.
experimental endpoint: normalized growth

Below, 6 compounds whose answers are already recorded.
compound	experimental endpoint	measured
NCC(O)CC(=O)O (centres undefined)	normalized growth	0.972 (inactive)
COc1ccc(-c2cc(=O)c3c(O)cc(O)c(-c4cc(-c5cc(=O)c6c(O)cc(O)cc6o5)ccc4OC)c3o2)cc1	normalized growth	0.99 (inactive)
Cc1ccc(-c2nc3ccc(C)cn3c2CC(=O)N(C)C)cc1	normalized growth	1.02 (inactive)
Nc1ccc(S(=O)(=O)Nc2ncccn2)cc1	normalized growth	1.01 (inactive)
CCC(=O)OCC(=O)C1(OC(=O)CC)C(C)CC2C3C(Cl)CC4=CC(=O)C=CC4(C)C3C(O)CC21C (centres undefined)	normalized growth	1.02 (inactive)
NS(=O)(=O)c1cc2c(cc1C(F)(F)F)NC(Cc1ccccc1)NS2(=O)=O (centres undefined)	normalized growth	0.97 (inactive)

For the compound CCC(=O)OCC(=O)C1(OC(=O)CC)C(C)CC2C3CCC4=CC(=O)C=CC4(C)C3(Cl)C(O)CC21C (centres undefined) , report normalized growth.
0.986 (inactive)

For the compound CC1(C)S[C@@H]2[C@H](NC(=O)[C@@H](N)c3ccc(O)cc3)C(=O)N2[C@H]1C(=O)O , report normalized growth.
0.995 (inactive)

For the compound C[C@H]1O[C@H](O[C@H]2[C@H](O)[C@@H](O)[C@@H](O[C@H]3[C@H](O)[C@@H](O)C(O)O[C@@H]3CO)O[C@@H]2CO)[C@H](O)[C@@H](O)[C@@H]1N[C@H]1C=C(CO)[C@@H](O)[C@H](O)[C@H]1O (some centres undefined) , report normalized growth.
0.996 (inactive)

For the compound C=CCSCC=C , report normalized growth.
0.97 (inactive)

For the compound C[C@H]1[C@H](C)CC[C@]2(C(=O)O)CC[C@]3(C)C(=CCC4[C@@]5(C)C[C@@H](O)[C@H](O)[C@@](C)(CO)C5[C@H](O)C[C@]43C)[C@H]12 (some centres undefined) , report normalized growth.
0.972 (inactive)

---

assay: chemical genetic growth profiling, strain panel (AID 1159580);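 note: tested at 20 µM; growth read once vehicle control cultures reached saturation at 30 °C; 1 = growth at the plate median or of vehicle wells; lower values mean less growth of the strain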; conditions: S. cerevisiae deletion strains, growth OD, locus YDL192W, strain arf1, active compounds read low
The campaign covered roughly 5,500 compounds. About 2,000 (36%) were called active. About 18% were inconclusive and are not listed. The list shows a part of the results.
Catalogue of compounds with associated normalized growth

Below, 3 compounds whose answers are already recorded.
compound	measured
COC(=O)C(N)CS (stereo unspecified)	0.975 (inactive)
O=C(O)c1cc(O)ccc1O	0.993 (inactive)
COc1ccc(-c2cc(=O)c3c(O)cc(O)cc3o2)cc1O	0.999 (inactive)

For the compound COC(=O)CC1C(C)(C)C(OC(C)=O)[C@@H]2[C@@H](OC(C)=O)[C@]34O[C@@]2(O)[C@]1(C)C3CC[C@]1(C)C4=CC(=O)O[C@H]1c1ccoc1 (stereo partly specified) , report normalized growth.
0.983 (inactive)

For the compound COc1cc(C)c2c(=O)c3c(O)cc(OC)cc3oc2c1 , report normalized growth.
0.986 (inactive)

For the compound COc1cc(C)c2c(=O)c3c(O)cc(O)cc3oc2c1 , report normalized growth.
0.891 (active)

---

test: chemical genetic growth profiling, strain panel (AID 1159580);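 note: tested at 20 µM; growth read once vehicle control cultures reached saturation at 30 °C; 1 = growth at the plate median or of vehicle wells; lower values mean less growth of the strain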; conditions: S. cerevisiae deletion strains, growth OD, locus YAL026C, strain drs2, active compounds read low
The campaign covered roughly 5,500 compounds. About 2,000 (36%) were called active. About 18% were inconclusive and are not listed. The list shows a part of the results.
Catalogue of molecules with associated normalized growth

molecule	normalized growth
Cc1c(OCC(F)(F)F)ccnc1CS(=O)c1nc2ccccc2[nH]1 (configuration not stated)	1.02 (inactive)
CC(=O)OCC(=O)[C@@]1(O)CCC2C3C[C@H](C)C4=CC(=O)C=CC4(C)C3[C@@H](O)CC21C (some centres not stated)	1.03 (inactive)
CC(C)(C)NCC(O)COc1cccc2c1CCCC2=O (configuration not stated)	0.976 (inactive)

For the molecule C[C@H]1O[C@@H](O[C@H]2[C@@H](O)C[C@H](O[C@H]3[C@@H](O)C[C@H](O[C@H]4CC[C@]5(C)C6C[C@@H](O)[C@]7(C)[C@@H](C8=CC(=O)OC8)CC[C@]7(O)C6CC[C@@H]5C4)O[C@@H]3C)O[C@@H]2C)C[C@H](O)[C@@H]1O (some centres not stated) , report normalized growth.
1.01 (inactive)

For the molecule CC(C)c1cccc(C(C)C)c1O , report normalized growth.
0.993 (inactive)

For the molecule CCC(=O)OCC(=O)C1(OC(=O)CC)C(C)CC2C3CCC4=CC(=O)C=CC4(C)C3(Cl)C(O)CC21C (configuration not stated) , report normalized growth.
1 (inactive)

For the molecule CCCc1nc(C)c2c(=O)[nH]c(-c3cc(S(=O)(=O)N4CCN(CC)CC4)ccc3OCC)nn12 , report normalized growth.
0.944 (inactive)

For the molecule C[C@]12CCC3C(CC[C@]4(O)C[C@@H](O)CC[C@]34C=O)[C@@]1(O)CCC2C1=CC(=O)OC1 (some centres not stated) , report normalized growth.
0.983 (inactive)

For the molecule NC(=O)c1ccccc1O , report normalized growth.
0.996 (inactive)

For the molecule COC1C(O)C(O[C@H]2CC[C@]3(C=O)C4C(CC[C@]3(O)C2)[C@@]2(O)CC[C@H](C3=CC(=O)OC3)[C@@]2(C)C[C@H]4OC(C)=O)OC(C)C1OC(C)=O (some centres not stated) , report normalized growth.
1.02 (inactive)

For the molecule CC(C)c1cccc(O)c(=O)c1 , report normalized growth.
0.0622 (active)

For the molecule COC1CC(OC2CCC3(C)C(CCC4C3CCC3(C)C(C5=CC(=O)OC5)C(OC(C)=O)CC43O)C2)OC(C)C1O (configuration not stated) , report normalized growth.
1.02 (inactive)

---

test: chemical genetic growth profiling, strain panel (AID 1159580);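 note: tested at 20 µM; growth read once vehicle control cultures reached saturation at 30 °C; 1 = growth at the plate median or of vehicle wells; lower values mean less growth of the strain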; details: S. cerevisiae deletion strains, growth OD, locus YKL085W, strain MDH1, active compounds read low
The campaign covered roughly 5,500 compounds. About 2,000 (36%) were called active. Roughly 18% stayed inconclusive and do not appear here. The list shows a part of the results.
Catalogue of molecules with associated normalized growth
Lab note: record just the number, no unit beside it.

Below, 3 molecules whose answers are already recorded.
molecule	experimental endpoint	measured
C[C@@H]1CC[C@@]23CCC4(C)[C@@](C=CC5[C@@]6(C)CC[C@H](O)C(C)(C)C6CC[C@]54C)(OC2=O)C3[C@H]1C (some centres undefined)	normalized growth	1
NC[C@@H]1O[C@H](O[C@@H]2[C@@H](CO)OC(O[C@@H]3[C@@H](O)[C@H](N)C[C@H](N)[C@H]3O[C@H]3O[C@H](CO)[C@@H](O)[C@H](O)[C@H]3N)[C@@H]2O)[C@H](N)[C@@H](O)[C@@H]1O (some centres undefined)	normalized growth	0.995
NS(=O)(=O)c1cc2c(cc1C(F)(F)F)NC(Cc1ccccc1)NS2(=O)=O (centres undefined)	normalized growth	0.999

Kindly consider the entry below.
For the molecule CC(=O)O[C@@H]1CC2C(C)(CC[C@H](O)C2(C)C)C2CC[C@]3(C)C(=CC(=O)O[C@H]3c3ccoc3)C21C (some centres undefined) , report normalized growth.
0.99
